- Tested on: SN12C renal
- TEST DESCRIPTION: NCI tumour cell line growth inhibition, 48 h; in the data active means GI50 below about 0.43 µM; inactive means the rest
Your reply should match one of these outcome classes. active, inactive

Below, 8 compounds whose answers are already recorded.
COMPOUND	CLASSIFICATION
Cc1nc2c(cnn2-c2ccnc3c(C(F)(F)F)cccc23)c(=O)o1	inactive
Cc1ccc(CCC(=O)Nc2ncc(Cc3cc(Cl)ccc3Cl)s2)o1	inactive
COc1cc([C@@H]2c3cc4c(cc3[C@H](OC3OC5COC(c6ccccc6)OC5C(O)C3O)[C@H]3COC(=O)[C@H]23)OCO4)cc(OC)c1OC (stereo not given in full)	active
COc1ccc(C(=O)c2cc3c(N)c(C(=O)Nc4cccc(Cl)c4)sc3nc2C)cc1	inactive
COc1ccccc1/C=C1\COc2ccc(O)c(O)c2C1=O	inactive
COc1ccc(C(=O)CC2(O)C(=O)Nc3c(Cl)ccc(Cl)c32)cc1 (stereo not given)	inactive
CC(C)(O)Cn1c(=O)c(Oc2ccc(F)cc2F)cc2cnc(NC3CCOCC3)nc21	inactive
COc1cc[c]([Hg][Cl])cc1	inactive

Which outcome was assigned to `CC(C)Oc1cc(OCC(=O)O)cc(C(=O)N(CCC(N)=O)C(=O)Nc2ccc(C(=O)O)cc2OC(C)C)c1` in this test?
inactive

What is the recorded call for this compound in the test? `Cc1ncc(C(=O)Nc2ccc(CN3CCN(C)CC3)c(C(F)(F)F)c2)cc1C#Cc1c(N)ncc2ccc(C#N)cc12`
inactive
